All values here come from paper PMC10620760.

Target: T1, PRC1_(1–168) (human, UniProt O43663 1-168)
T1 chain: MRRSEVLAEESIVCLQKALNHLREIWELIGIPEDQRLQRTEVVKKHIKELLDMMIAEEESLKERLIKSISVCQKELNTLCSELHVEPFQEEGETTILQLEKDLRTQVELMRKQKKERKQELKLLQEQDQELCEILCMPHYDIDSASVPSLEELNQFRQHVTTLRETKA
Assay: ITC
Kindly state Kd for each of the entries shown.

// Kd lookup, binder = PKSCFFDSRSK [CENP‐E peptide 1] , result: 41.1 µM

For reference, reported Kd for PVRYFDNSSLG [CENP‐E peptide 2] stands at 64 µM
